Test: Half life from dog blood after intravenous administration at a dose of 0.3 mg/kg Expt-2
Type: ADME, organism-based, Canis lupus familiaris
Parameters: dose 0.3 mg/kg, route intravenous

compound.structure.string | half-life
CCOC(=O)C[C@H](NC(=O)CN1C(=O)N[C@@](C)(c2ccc(C(=N)N)cc2)C1=O)c1ccccc1 | 48 min

* * *

Target: Integrin alpha-IIb/beta-3 (Homo sapiens, UniProt P05106+P08514)
Sequence (P05106 27-788 limits assumed): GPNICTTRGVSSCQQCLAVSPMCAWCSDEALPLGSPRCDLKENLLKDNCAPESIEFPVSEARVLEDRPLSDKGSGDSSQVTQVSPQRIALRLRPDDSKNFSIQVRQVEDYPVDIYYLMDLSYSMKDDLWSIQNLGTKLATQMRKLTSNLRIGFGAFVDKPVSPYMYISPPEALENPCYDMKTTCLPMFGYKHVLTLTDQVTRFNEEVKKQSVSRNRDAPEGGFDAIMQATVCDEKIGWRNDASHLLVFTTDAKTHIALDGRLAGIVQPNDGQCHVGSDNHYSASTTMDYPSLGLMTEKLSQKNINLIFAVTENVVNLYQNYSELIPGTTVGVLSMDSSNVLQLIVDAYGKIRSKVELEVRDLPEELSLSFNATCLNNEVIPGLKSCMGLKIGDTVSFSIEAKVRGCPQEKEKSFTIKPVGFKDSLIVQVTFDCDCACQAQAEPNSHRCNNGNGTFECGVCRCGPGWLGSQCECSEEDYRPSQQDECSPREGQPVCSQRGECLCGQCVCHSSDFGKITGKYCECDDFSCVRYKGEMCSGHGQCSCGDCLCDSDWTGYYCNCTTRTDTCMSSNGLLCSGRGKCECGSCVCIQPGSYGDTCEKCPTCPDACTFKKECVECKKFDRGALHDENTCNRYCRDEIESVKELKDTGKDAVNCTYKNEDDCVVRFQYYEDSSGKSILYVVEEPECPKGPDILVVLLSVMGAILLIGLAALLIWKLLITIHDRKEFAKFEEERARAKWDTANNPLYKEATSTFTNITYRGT
Sequence (P08514 32-887 limits assumed): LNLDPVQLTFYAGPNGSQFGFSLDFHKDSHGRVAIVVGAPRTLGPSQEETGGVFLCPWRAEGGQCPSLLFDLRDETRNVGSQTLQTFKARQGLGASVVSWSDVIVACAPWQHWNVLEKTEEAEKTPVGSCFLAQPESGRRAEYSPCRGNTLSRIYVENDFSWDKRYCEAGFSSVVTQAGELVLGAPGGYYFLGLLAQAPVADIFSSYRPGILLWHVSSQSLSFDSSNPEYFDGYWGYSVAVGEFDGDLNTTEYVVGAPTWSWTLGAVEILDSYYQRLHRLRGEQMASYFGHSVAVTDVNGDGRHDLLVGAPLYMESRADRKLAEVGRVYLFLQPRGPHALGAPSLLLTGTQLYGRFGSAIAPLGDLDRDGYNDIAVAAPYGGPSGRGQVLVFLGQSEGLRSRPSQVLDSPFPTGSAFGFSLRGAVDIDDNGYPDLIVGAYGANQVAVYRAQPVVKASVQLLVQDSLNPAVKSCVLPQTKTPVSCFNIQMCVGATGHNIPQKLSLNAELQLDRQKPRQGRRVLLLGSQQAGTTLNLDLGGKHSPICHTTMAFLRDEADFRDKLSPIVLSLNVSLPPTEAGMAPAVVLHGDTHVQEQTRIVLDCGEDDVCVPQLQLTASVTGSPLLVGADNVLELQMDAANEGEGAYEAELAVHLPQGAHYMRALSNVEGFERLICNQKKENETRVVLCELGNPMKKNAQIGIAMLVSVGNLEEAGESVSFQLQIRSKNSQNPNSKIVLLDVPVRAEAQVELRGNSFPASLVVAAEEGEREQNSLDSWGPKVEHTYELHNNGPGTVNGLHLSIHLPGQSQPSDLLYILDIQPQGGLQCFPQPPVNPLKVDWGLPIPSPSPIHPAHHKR
Sequence (P08514 891-1039 limits assumed): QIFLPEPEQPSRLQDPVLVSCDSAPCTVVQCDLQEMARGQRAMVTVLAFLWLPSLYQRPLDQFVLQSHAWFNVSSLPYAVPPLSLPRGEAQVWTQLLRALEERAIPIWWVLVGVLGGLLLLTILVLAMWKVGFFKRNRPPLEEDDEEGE
Test: Inhibition of [125I]fibrinogen binding to isolated GPIIb/IIIa
Assay type: protein-complex assay
measured.attribute: Ki (nM)

compound.structure.string | measured.on | scale.unit | numeric.result
C[C@@]1(c2ccc(C(=N)N)cc2)NC(=O)N(CC(=O)N[C@@H](CC(=O)O)c2ccccc2)C1=O | Integrin alpha-IIb/beta-3 (Homo sapiens, UniProt P05106+P08514) | nM | 0.17

* * *

Test: Half life from dog blood after oral administration at a dose of 3 mg/kg Expt-1
Assay type: ADME, organism-based, Canis lupus familiaris
Design: dose 3 mg/kg, route oral

compound.structure.string | scale.unit | half-life
CCOC(=O)C[C@H](NC(=O)CN1C(=O)N[C@@](C)(c2ccc(C(=N)N)cc2)C1=O)c1ccccc1 | h | 7.9

* * *

Organism: Homo sapiens
Experiment: Inhibitory activity against platelet rich plasma
Type: functional, organism-based
pIC50: −log10 of the molar value.
measured.attribute: pIC50

compound.structure.string | numeric.result
C[C@@]1(c2ccc(C(=N)N)cc2)NC(=O)N(CC(=O)N[C@@H](CC(=O)O)c2ccccc2)C1=O | 7.00
